system: α4β1 integrin (Jurkat T-cell adhesion to IL-1 stimulated endothelial cell monolayers) (Homo sapiens, UniProt P05556+P13612)
Construct: a T-cell line, Jurkat, known to express the α4β1 integrin
Sequence (P13612 34-1032): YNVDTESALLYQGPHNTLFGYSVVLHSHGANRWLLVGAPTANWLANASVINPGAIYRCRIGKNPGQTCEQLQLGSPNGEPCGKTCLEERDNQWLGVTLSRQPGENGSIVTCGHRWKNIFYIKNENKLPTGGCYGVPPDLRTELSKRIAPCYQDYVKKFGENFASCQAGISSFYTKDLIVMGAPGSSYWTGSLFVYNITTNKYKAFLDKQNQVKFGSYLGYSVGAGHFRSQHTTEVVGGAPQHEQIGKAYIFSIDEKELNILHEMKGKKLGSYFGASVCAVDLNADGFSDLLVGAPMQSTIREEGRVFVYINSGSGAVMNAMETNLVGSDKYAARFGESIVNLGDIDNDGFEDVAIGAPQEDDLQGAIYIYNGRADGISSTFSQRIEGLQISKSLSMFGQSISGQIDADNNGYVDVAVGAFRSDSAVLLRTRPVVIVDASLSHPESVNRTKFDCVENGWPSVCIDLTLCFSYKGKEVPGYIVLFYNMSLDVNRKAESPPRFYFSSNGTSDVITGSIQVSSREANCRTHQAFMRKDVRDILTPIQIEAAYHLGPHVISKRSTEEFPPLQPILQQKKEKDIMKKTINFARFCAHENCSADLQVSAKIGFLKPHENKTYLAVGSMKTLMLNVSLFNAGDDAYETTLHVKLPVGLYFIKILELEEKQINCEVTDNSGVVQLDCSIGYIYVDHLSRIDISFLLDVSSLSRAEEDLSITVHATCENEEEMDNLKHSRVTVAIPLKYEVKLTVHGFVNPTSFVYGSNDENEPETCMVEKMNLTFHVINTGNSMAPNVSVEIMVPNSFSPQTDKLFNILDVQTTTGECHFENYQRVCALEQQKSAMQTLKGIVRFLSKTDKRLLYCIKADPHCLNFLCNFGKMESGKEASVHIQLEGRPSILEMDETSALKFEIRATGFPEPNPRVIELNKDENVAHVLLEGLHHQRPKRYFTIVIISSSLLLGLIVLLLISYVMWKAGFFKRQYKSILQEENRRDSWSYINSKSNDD
Sequence (P05556 21-798): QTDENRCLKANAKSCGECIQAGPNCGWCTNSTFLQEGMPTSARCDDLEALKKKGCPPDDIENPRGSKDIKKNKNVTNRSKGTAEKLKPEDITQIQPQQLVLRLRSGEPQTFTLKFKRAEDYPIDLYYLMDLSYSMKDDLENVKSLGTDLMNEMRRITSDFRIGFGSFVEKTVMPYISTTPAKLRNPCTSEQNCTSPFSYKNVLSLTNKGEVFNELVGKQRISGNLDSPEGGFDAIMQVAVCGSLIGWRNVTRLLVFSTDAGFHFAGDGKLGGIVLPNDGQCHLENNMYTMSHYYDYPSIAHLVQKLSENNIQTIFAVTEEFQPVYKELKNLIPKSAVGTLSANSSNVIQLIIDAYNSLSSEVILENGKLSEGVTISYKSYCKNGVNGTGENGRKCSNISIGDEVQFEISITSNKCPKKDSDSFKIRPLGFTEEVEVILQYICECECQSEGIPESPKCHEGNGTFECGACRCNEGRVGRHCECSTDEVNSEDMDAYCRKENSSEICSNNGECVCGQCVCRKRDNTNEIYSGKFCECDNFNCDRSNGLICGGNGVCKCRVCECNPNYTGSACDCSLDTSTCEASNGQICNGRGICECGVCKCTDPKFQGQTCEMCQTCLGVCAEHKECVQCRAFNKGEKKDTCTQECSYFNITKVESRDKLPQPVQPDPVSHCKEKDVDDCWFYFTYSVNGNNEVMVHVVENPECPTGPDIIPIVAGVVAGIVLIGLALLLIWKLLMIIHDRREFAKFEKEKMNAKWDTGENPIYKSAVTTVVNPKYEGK
measurementProtocol: Jurkat-endothelial cell adhesion assay (Jurkat EC)
conditionDetails: Jurkat cells on IL-1 stimulated human umbilical vein endothelial cells; read-out: JK/EC (Jurkat EC Assay IC50 value range)
Protocol: Jurkat-endothelial Cell Adhesion Assay: The following assay established the activity of the present compounds in inhibiting β1-mediated cell adhesion in a representative in vitro system. This assay measures the adhesive interactions of a T-cell line, Jurkat, known to express the α4β1 integrin, to endothelial monolayers in the presence of test compounds. […] The plates were incubated, washed and the percentage of attached cells was quantitated. […]
pIC50: −log10 of the molar value.
Exercise: for every item that follows, state its recorded pIC50.

Consider the worked cases shown below.
CS(=O)(=O)N1CSC[C@@H]1C(=O)N[C@@H](Cc1ccc(NC(=O)c2c(Cl)cccc2Cl)cc1)C(=O)O | ≥ 6.60
CN1C(=O)CCC1(CCC(=O)O)CCC(=O)N[C@@H](Cc1ccc(OCc2c(Cl)cccc2Cl)cc1)C(=O)O (stereo partly drawn) | ≤ 6.00

Per the records, this compound ( COC(=O)[C@H](Cc1ccc(NC(=O)c2c(Cl)cccc2Cl)cc1)NC(=O)[C@@H]1CSCN1C(=O)OC(C)(C)C (stereo in doubt) ) has pIC50 equal to ≤ 6.00
